// data source = patent US20040053822A1

# Target or test system: HLA-DRB1*0101 (human)
# Test: inhibition of 125I-probe binding to purified HLA-DR
List of IC50 values.

INSERT INTO assay_data (binder, assay_metric, measured_result) VALUES
  ('LLIIVLAIIAIEGDC [MAGE2.201 (15-mer)]', 'IC50', '≤ 1000 nM');

Alright, here's another binder for you.
Tell me the measured IC50 of LIIVLAIIAIEGDCA [MAGE2.202 (15-mer)] , please. ≤ 1000 nM
